- TARGET_OF_ASSAY: kainate site (non-NMDA receptor)
- ASSAY_COMMENT: Kainate site (non-NMDA receptor) binding affinity (London and Coyle)
- TEST_CONDITIONS: Table 2, cyclopentyl-fused analogs
Structures can show the parent of a compound that is named as a salt.
For each record, write down the corresponding IC50.

Quick note, IC50 for CC(=O)N(C)C1Cc2c([N+](=O)[O-])cc3[nH]c(=O)c(=O)[nH]c3c2C1 (stereo not drawn) landed at 2.2 µM

IC50 for CC(=O)NC1Cc2c([N+](=O)[O-])cc3[nH]c(=O)c(=O)[nH]c3c2C1 (stereo not drawn) is 0.9 µM

Briefly, IC50 measured for O=C(Nc1ccccc1)C1Cc2c([N+](=O)[O-])cc3[nH]c(=O)c(=O)[nH]c3c2C1 (stereo not drawn) : 3.9 µM

Lookup result for O=C(CN(CCO)CCO)NC1Cc2c([N+](=O)[O-])cc3[nH]c(=O)c(=O)[nH]c3c2C1 (stereo not drawn) ; measured IC50: 1.4 µM

The compound listed as O=C(NC1Cc2c([N+](=O)[O-])cc3[nH]c(=O)c(=O)[nH]c3c2C1)C1CCNCC1 (stereo not drawn) [Example 35, hydrochloride] shows IC50 equal to 0.28 µM

Lab note: measured IC50 of O=C(NC1Cc2c([N+](=O)[O-])cc3[nH]c(=O)c(=O)[nH]c3c2C1)c1cccs1 (stereo not drawn) was 0.18 µM

The compound listed as CC(=O)NC1Cc2cc(Br)c3[nH]c(=O)c(=O)[nH]c3c2C1 (stereo not drawn) shows IC50 equal to > 100 µM

IC50 reported for this compound O=C(NC1Cc2c([N+](=O)[O-])cc3[nH]c(=O)c(=O)[nH]c3c2C1)c1ccoc1 (stereo not drawn) : 0.38 µM

What the record says about O=C(NC1Cc2c([N+](=O)[O-])cc3[nH]c(=O)c(=O)[nH]c3c2C1)C1CCCN1 (stereo not drawn) : IC50 is 0.86 µM

IC50 measured on O=C(NC1Cc2c([N+](=O)[O-])cc3[nH]c(=O)c(=O)[nH]c3c2C1)C1(O)OC(O)C(O)C1O (stereo not drawn) = 1.1 µM

Notebook: O=C(NC1Cc2c([N+](=O)[O-])cc3[nH]c(=O)c(=O)[nH]c3c2C1)c1ccccc1 (stereo not drawn) , IC50 read as 0.48 µM

Item: O=C(NC1Cc2c([N+](=O)[O-])cc3[nH]c(=O)c(=O)[nH]c3c2C1)c1cc2ccccc2s1 (stereo not drawn) | IC50: 8.1 µM

GET /value?item= CNC1Cc2c([N+](=O)[O-])cc3[nH]c(=O)c(=O)[nH]c3c2C1 (stereo not drawn) &field=IC50 returns 2.2 µM

O=c1[nH]c2cc([N+](=O)[O-])c3c(c2[nH]c1=O)CC(N1CCCC1)C3 (stereo not drawn) yielded IC50 of 2.2 µM

The compound O=C(O)C1Cc2c([N+](=O)[O-])cc3[nH]c(=O)c(=O)[nH]c3c2C1 (stereo not drawn) showed IC50 equal to 1.9 µM

// O=C(NC1Cc2c([N+](=O)[O-])cc3[nH]c(=O)c(=O)[nH]c3c2C1)c1cccnc1 (stereo not drawn) : IC50 value = 1.03 µM

Record CN(C(=O)C1Cc2c([N+](=O)[O-])cc3[nH]c(=O)c(=O)[nH]c3c2C1)c1ccccc1 (stereo not drawn) . Reported IC50: 1.6 µM

IC50 for CC(=O)NC1Cc2ccc3[nH]c(=O)c(=O)[nH]c3c2C1 (stereo not drawn) is 87 µM
